Entries and their MIC
# System: infectious agents (strains tested)
# assayOverview: microbe, parasite or virus in culture
# Format: cell-based
# appliedConditions: Clavispora lusitaniae, Candida lusitaniae; read-out: Geometric Mean MIC

{"molecule": "CCC([C@@H](C)O)n1ncn(-c2ccc(N3CCN(c4ccc(OC[C@@H]5CO[C@@](Cn6cncn6)(c6ccc(F)cc6F)C5)cc4)CC3)cc2)c1=O (stereo partly shown)", "MIC / µg/mL": 0.048}
{"molecule": "CCC(C)n1ncn(-c2ccc(N3CCN(c4ccc(OCC5COC(Cn6cncn6)(c6ccc(Cl)cc6Cl)O5)cc4)CC3)cc2)c1=O (stereo not shown)", "MIC / µg/mL": 0.216}
{"molecule": "C[C@@H]1[C@H](O)[C@@H](C)/C=C/C=C/C=C/C=C/C=C/C=C/C=C/[C@H](O[C@@H]2O[C@H](C)[C@@H](O)[C@H](N)[C@@H]2O)C[C@@H]2O[C@](O)(C[C@@H](O)C[C@@H](O)[C@H](O)CC[C@@H](O)C[C@@H](O)CC(=O)O[C@H]1C)C[C@H](O)[C@H]2C(=O)O", "MIC / µg/mL": 0.506}
{"molecule": "C[C@@H](c1ncncc1F)[C@](O)(Cn1cncn1)c1ccc(F)cc1F", "MIC / µg/mL": 0.023}

* * *

# Test system: infectious agents (strains tested)
# assayOverview: microbe, parasite or virus in culture
# Type: cell-based
# appliedConditions: Candida dubliniensis; read-out: Geometric Mean MIC

{"compound": "C[C@@H](c1ncncc1F)[C@](O)(Cn1cncn1)c1ccc(F)cc1F", "measuredOn": "infectious agents (strains tested)", "unitOfMeasurement": "µg/mL", "MIC": 0.028}
{"compound": "C[C@@H]1[C@H](O)[C@@H](C)/C=C/C=C/C=C/C=C/C=C/C=C/C=C/[C@H](O[C@@H]2O[C@H](C)[C@@H](O)[C@H](N)[C@@H]2O)C[C@@H]2O[C@](O)(C[C@@H](O)C[C@@H](O)[C@H](O)CC[C@@H](O)C[C@@H](O)CC(=O)O[C@H]1C)C[C@H](O)[C@H]2C(=O)O", "measuredOn": "infectious agents (strains tested)", "unitOfMeasurement": "µg/mL", "MIC": 0.513}
{"compound": "CCC([C@@H](C)O)n1ncn(-c2ccc(N3CCN(c4ccc(OC[C@@H]5CO[C@@](Cn6cncn6)(c6ccc(F)cc6F)C5)cc4)CC3)cc2)c1=O (stereo partly shown)", "measuredOn": "infectious agents (strains tested)", "unitOfMeasurement": "µg/mL", "MIC": 0.062}
{"compound": "CCC(C)n1ncn(-c2ccc(N3CCN(c4ccc(OCC5COC(Cn6cncn6)(c6ccc(Cl)cc6Cl)O5)cc4)CC3)cc2)c1=O (stereo not shown)", "measuredOn": "infectious agents (strains tested)", "unitOfMeasurement": "µg/mL", "MIC": 0.107}

* * *

# Tested on: infectious agents (strains tested)
# assayOverview: microbe, parasite or virus in culture
# Format: cell-based
# appliedConditions: Saccharomyces cerevisiae; read-out: Geometric Mean MIC

{"compound": "CCC([C@@H](C)O)n1ncn(-c2ccc(N3CCN(c4ccc(OC[C@@H]5CO[C@@](Cn6cncn6)(c6ccc(F)cc6F)C5)cc4)CC3)cc2)c1=O (stereo partly shown)", "unitOfMeasurement": "µg/mL", "MIC": 0.249}
{"compound": "CCC(C)n1ncn(-c2ccc(N3CCN(c4ccc(OCC5COC(Cn6cncn6)(c6ccc(Cl)cc6Cl)O5)cc4)CC3)cc2)c1=O (stereo not shown)", "unitOfMeasurement": "µg/mL", "MIC": 0.418}
{"compound": "C[C@@H](c1ncncc1F)[C@](O)(Cn1cncn1)c1ccc(F)cc1F", "unitOfMeasurement": "µg/mL", "MIC": 0.05}
{"compound": "C[C@@H]1[C@H](O)[C@@H](C)/C=C/C=C/C=C/C=C/C=C/C=C/C=C/[C@H](O[C@@H]2O[C@H](C)[C@@H](O)[C@H](N)[C@@H]2O)C[C@@H]2O[C@](O)(C[C@@H](O)C[C@@H](O)[C@H](O)CC[C@@H](O)C[C@@H](O)CC(=O)O[C@H]1C)C[C@H](O)[C@H]2C(=O)O", "unitOfMeasurement": "µg/mL", "MIC": 0.775}

* * *

Entries and their MIC
# Tested on: infectious agents (strains tested)
# assayOverview: microbe, parasite or virus in culture
# Format: cell-based
# appliedConditions: Trichophyton tonsurans; read-out: Geometric Mean MIC

{"molecule": "C[C@@H](c1ncncc1F)[C@](O)(Cn1cncn1)c1ccc(F)cc1F [Voriconazole]", "MIC [mg/L]": 0.043}
{"molecule": "CCC(C)n1ncn(-c2ccc(N3CCN(c4ccc(OCC5COC(Cn6cncn6)(c6ccc(Cl)cc6Cl)O5)cc4)CC3)cc2)c1=O (stereo not shown) [Itraconazole]", "MIC [mg/L]": 0.036}
{"molecule": "C[C@@H]1[C@H](O)[C@@H](C)/C=C/C=C/C=C/C=C/C=C/C=C/C=C/[C@H](O[C@@H]2O[C@H](C)[C@@H](O)[C@H](N)[C@@H]2O)C[C@@H]2O[C@](O)(C[C@@H](O)C[C@@H](O)[C@H](O)CC[C@@H](O)C[C@@H](O)CC(=O)O[C@H]1C)C[C@H](O)[C@H]2C(=O)O [Amphotericin]", "MIC [mg/L]": 1.26}
{"molecule": "CCC([C@@H](C)O)n1ncn(-c2ccc(N3CCN(c4ccc(OC[C@@H]5CO[C@@](Cn6cncn6)(c6ccc(F)cc6F)C5)cc4)CC3)cc2)c1=O (stereo partly shown) [Posaconazole]", "MIC [mg/L]": 0.029}

* * *

Entries and their MIC
# Tested on: infectious agents (strains tested)
# assayOverview: microbe, parasite or virus in culture
# Assay type: cell-based
# appliedConditions: Candida dubliniensis; read-out: MIC[90]

{"molecule": "C[C@@H]1[C@H](O)[C@@H](C)/C=C/C=C/C=C/C=C/C=C/C=C/C=C/[C@H](O[C@@H]2O[C@H](C)[C@@H](O)[C@H](N)[C@@H]2O)C[C@@H]2O[C@](O)(C[C@@H](O)C[C@@H](O)[C@H](O)CC[C@@H](O)C[C@@H](O)CC(=O)O[C@H]1C)C[C@H](O)[C@H]2C(=O)O", "unitOfMeasurement": "µg/mL", "MIC": 1}
{"molecule": "CCC(C)n1ncn(-c2ccc(N3CCN(c4ccc(OCC5COC(Cn6cncn6)(c6ccc(Cl)cc6Cl)O5)cc4)CC3)cc2)c1=O (stereo not shown)", "unitOfMeasurement": "µg/mL", "MIC": 0.5}
{"molecule": "C[C@@H](c1ncncc1F)[C@](O)(Cn1cncn1)c1ccc(F)cc1F", "unitOfMeasurement": "µg/mL", "MIC": 0.125}
{"molecule": "CCC([C@@H](C)O)n1ncn(-c2ccc(N3CCN(c4ccc(OC[C@@H]5CO[C@@](Cn6cncn6)(c6ccc(F)cc6F)C5)cc4)CC3)cc2)c1=O (stereo partly shown)", "unitOfMeasurement": "µg/mL", "MIC": 0.25}

* * *

Entries and their MIC
# Test system: infectious agents (strains tested)
# assayOverview: organism not typed
# Format: cell-based
# appliedConditions: Absidia spp; read-out: MIC[90]

{"compound": "CCC([C@@H](C)O)n1ncn(-c2ccc(N3CCN(c4ccc(OC[C@@H]5CO[C@@](Cn6cncn6)(c6ccc(F)cc6F)C5)cc4)CC3)cc2)c1=O (stereo partly shown) [Posaconazole]", "MIC": "0.031 to 0.5 µg/mL"}
{"compound": "CCC(C)n1ncn(-c2ccc(N3CCN(c4ccc(OCC5COC(Cn6cncn6)(c6ccc(Cl)cc6Cl)O5)cc4)CC3)cc2)c1=O (stereo not shown) [Itraconazole]", "MIC": "0.063 to 2 µg/mL"}
{"compound": "C[C@@H](c1ncncc1F)[C@](O)(Cn1cncn1)c1ccc(F)cc1F [Voriconazole]", "MIC": "8 to 128 µg/mL"}
{"compound": "C[C@@H]1[C@H](O)[C@@H](C)/C=C/C=C/C=C/C=C/C=C/C=C/C=C/[C@H](O[C@@H]2O[C@H](C)[C@@H](O)[C@H](N)[C@@H]2O)C[C@@H]2O[C@](O)(C[C@@H](O)C[C@@H](O)[C@H](O)CC[C@@H](O)C[C@@H](O)CC(=O)O[C@H]1C)C[C@H](O)[C@H]2C(=O)O [Amphotericin]", "MIC": "0.25 to 2 µg/mL"}

* * *

# System: infectious agents (strains tested)
# assayOverview: microbe, parasite or virus in culture
# Assay type: cell-based
# appliedConditions: Aspergillus nidulans; read-out: MIC[90]
Entries and their MIC
measuredAttribute: MIC (µg/mL)

{"molecule": "CCC([C@@H](C)O)n1ncn(-c2ccc(N3CCN(c4ccc(OC[C@@H]5CO[C@@](Cn6cncn6)(c6ccc(F)cc6F)C5)cc4)CC3)cc2)c1=O (stereo partly shown) [Posaconazole]", "measValue": 0.25}
{"molecule": "C[C@@H]1[C@H](O)[C@@H](C)/C=C/C=C/C=C/C=C/C=C/C=C/C=C/[C@H](O[C@@H]2O[C@H](C)[C@@H](O)[C@H](N)[C@@H]2O)C[C@@H]2O[C@](O)(C[C@@H](O)C[C@@H](O)[C@H](O)CC[C@@H](O)C[C@@H](O)CC(=O)O[C@H]1C)C[C@H](O)[C@H]2C(=O)O [Amphotericin]", "measValue": 2}
{"molecule": "CCC(C)n1ncn(-c2ccc(N3CCN(c4ccc(OCC5COC(Cn6cncn6)(c6ccc(Cl)cc6Cl)O5)cc4)CC3)cc2)c1=O (stereo not shown) [Itraconazole]", "measValue": 0.5}

Where do these numbers come from? They come from patent US20090226527A1.
